# target_or_test_system: FGFR3 (UniProt P22607)
# Sequence (P22607 whole entry, looked up): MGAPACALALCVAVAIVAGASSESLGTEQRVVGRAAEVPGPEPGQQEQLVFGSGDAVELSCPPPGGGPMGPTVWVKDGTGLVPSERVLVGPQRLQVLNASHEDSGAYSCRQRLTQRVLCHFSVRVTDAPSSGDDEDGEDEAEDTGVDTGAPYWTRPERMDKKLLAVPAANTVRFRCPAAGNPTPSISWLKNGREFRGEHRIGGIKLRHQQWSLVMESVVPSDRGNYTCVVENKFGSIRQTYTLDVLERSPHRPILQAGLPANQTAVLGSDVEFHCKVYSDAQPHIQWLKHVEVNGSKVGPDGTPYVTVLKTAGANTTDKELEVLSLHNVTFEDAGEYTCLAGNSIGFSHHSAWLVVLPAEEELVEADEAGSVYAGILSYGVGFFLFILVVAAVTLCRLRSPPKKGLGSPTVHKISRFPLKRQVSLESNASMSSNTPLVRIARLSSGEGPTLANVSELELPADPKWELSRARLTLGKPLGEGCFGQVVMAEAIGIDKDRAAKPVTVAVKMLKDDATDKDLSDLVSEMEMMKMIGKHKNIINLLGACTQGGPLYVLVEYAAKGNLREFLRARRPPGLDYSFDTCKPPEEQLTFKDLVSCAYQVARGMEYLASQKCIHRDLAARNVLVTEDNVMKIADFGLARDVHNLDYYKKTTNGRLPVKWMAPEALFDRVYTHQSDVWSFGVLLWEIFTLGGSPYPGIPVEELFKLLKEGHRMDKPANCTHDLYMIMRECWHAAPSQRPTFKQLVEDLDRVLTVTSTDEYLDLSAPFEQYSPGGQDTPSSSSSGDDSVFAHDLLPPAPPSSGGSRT
# test_details: phosphorylation enrichment, bacterial display (enrichment ratio); higher = better substrate or ligand; peptides without Tyr show the background;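 note: 11-residue human phosphosite peptides and single-mutation variants displayed on the E. coli surface, counted by deep sequencing, each peptide's frequency after selection divided by its frequency in the unselected input library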;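 note: frequency after pTyr selection over input frequency; kinase dosed for 20-30% of maximal phosphorylation in three min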
result_type: phosphorylation enrichment

Below: 5 sequences and their reported phosphorylation enrichment.
AKLDEYIAIAK [RCOR3_Y46]: 0.711
QHVPDYRQNVF [PCDHGA1_Y890_YF]: 0.704
FFVVEYRDQKP [MUC17_Y4332_YF]: 0.803
ELRGTYTSLQQ [KIF3C_Y574]: 0.535
SHLSSYTTHPQ [NIPBL_Y195_P192L]: 0.591

# batch: return phosphorylation enrichment for each of the 6 sequences below
1. VTAALYGCLYE [BTD_Y536_R538C]
2. CTTIHYIFMCN [TP53_Y234_N235I_YF]
3. RMETEYGPSVT [MXRA5_Y2717]
4. QTSTDYDIRFF [CSNK2A1_Y131_L128S_YF]
5. ESKKHYGYSLY [ANXA3_Y295_F291S]
6. TFGVVYKARNK [CDK2_Y19_YF]

1. 0.825
2. 0.657
3. 0.718
4. 1.41
5. 0.474
6. 0.694

Batch of 2 sequences: report phosphorylation enrichment for each.
1. SDMGQYQCLVF [AXL_Y115_T112M]
2. LNPFIYSLRNW [OR1A2_Y288]

[1.89, 1.1]

Your task in this section: give phosphorylation enrichment for each listed record.
1. VIESSYTSADG [DHCR7_Y382_C380S]
2. IHHIDYYKETT [FGFR1_Y653_K656E]
3. QWLEQYTQAIE [LSP1_Y234]
4. IKAGAYDFPSP [CAMK2A_Y230]
5. NKPTVCGVSPN [ABL1_Y226_Y226C]
6. KNEVLYDEENH [ARFGEF1_Y314_G316E]
7. PHQTIYGALMI [FGF23_Y70_S71G]
8. PGIRMYQVQYN [LRFN1_Y454]

0.627
0.891
0.589
0.462
0.589
0.671
0.838
0.863

---

# Tested on: c-Src
# test_details: phosphorylation enrichment, bacterial display (enrichment ratio); higher = better substrate or ligand; peptides without Tyr show the background
result_type: phosphorylation enrichment
One number for each entry.

For the 3 sequences below, give their phosphorylation enrichment values.
1. LVMFFYAIFGM [SCN1A_Y1684_I1683F]
2. LYSGDCYRIQG [DDR2_Y740_Y740C]
3. IQKKFYRAILE [CHD7_Y1218_YF]

0.524
1.22
0.414

---

# Test system: Fer (mouse)
# test_details: phosphorylation enrichment, bacterial display (enrichment ratio); higher = better substrate or ligand; peptides without Tyr show the background
I'd be grateful if you could share measured phosphorylation enrichment for these entries.
Give bare numbers.

DSGKLYALDVL [INO80_Y1104]: 0.676

Hi, could you look up phosphorylation enrichment for each item in my list?
1. VTVLDYDKTGK [SYT1_Y365_I368T]
2. GNLQEYLTRHV [TGFBR2_Y336]

0.411
0.462

---

# System: c-Src
# test_details: phosphorylation enrichment, bacterial display (enrichment ratio); higher = better substrate or ligand; peptides without Tyr show the background
result_type: phosphorylation enrichment
One number for each entry.

Example cases with answers are listed next.
KSLFHHRQYSA [CPS1_Y1491_Y1491H]: 0.478
HSGVSYYINLC [IGF2R_Y2024_N2020S]: 0.488
SVVAPYEPPEV [TP53_Y220_V218A]: 0.672
EWLRRHLENGK [HLA-A_Y195_Y195H]: 0.331

Please state phosphorylation enrichment for every sequence in the list that follows.
1. HNMPIYEGYAL [ACTA1_Y168_V165M]
2. CDIPRYIVSQL [MAST2_Y461]
3. YQLENYCNGGG [INS_Y108]
4. KHTLSFVDVGT [SDHA_Y629_Y629F]

1: 10.4; 2: 0.442; 3: 0.455; 4: 0.292

The origin of these recorded values is the supplement of paper PMC10065799.
